Source listed as patent US20190016825A1.

Target: T1, PCSK9-BP15-His6 (human, UniProt Q8NBP7 31-692, biotin on the BP15 biotin receiving peptide)
T1 construct: It holds a signal peptide (underlined in print); also called WT PCSK9; bio-WT-PCSK9
Test: blocking ELISA, LDLR-FC (SEQ ID NO: 8) coated, bio-WT-PCSK9 plus antibody

- binder: "h001-10 (antibody, human IgG1, V domains shown, Variable regions only; also called h001_VH.1B + h001_VL.1A) VH: QVQLVQSGAEVKKPGASVKVSCKASGYTFTDYWMHWVRQAPGQGLEWMGYINPSSGFTKYHQNFKDRVTMTRDTSISTAYMELSRLTSDDTAVYYCARQYDYDEDWYFDVWGQGTTVTVSS VL: DIQMTQSPSSLSASVGDRVTITCKSSQSLLNSRTRKNFLAWYQQKPGKAPKLLIYWASTRESGVPDRFSGSGSGTDFTLTISSLQPEDFATYYCKQSFNLFTFGQGTKLEIK"
  IC50 / µg/mL: 0.829
- binder: "h001-6 (antibody, human IgG1, V domains shown, Variable regions only; also called h001_VH.1A + h001_VL.1A) VH: QVQLVQSGAEVKKPGASVKVSCKASGYTFNDYWMHWVRQAPGQGLEWMGYINPSSGFTKYHQNFKDRVTMTRDTSISTAYMELSRLRSDDTAVYYCARQYDYDEDWYFDVWGQGTTVTVSS VL: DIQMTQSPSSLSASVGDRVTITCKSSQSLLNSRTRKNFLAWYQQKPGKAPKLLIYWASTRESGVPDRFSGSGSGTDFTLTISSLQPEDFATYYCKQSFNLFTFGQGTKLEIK"
  IC50 / µg/mL: 0.662
- binder: "Ch-001 (antibody, V domains shown, also called chimeric antibody) VH: QVHLQQSGAELAKPGASVKLSCKASGYTFNDYWMHWVKERPGQGLEWIGYINPSSGFTKYHQNFKDKATLTADKSSSTAYMQLSSLTYDDSAVYYCARQYDYDEDWYFDVWGTGTTVTVSS VL: DIVMSQSPSSLAVSAGEKVTMSCKSSQSLLNSRTRKNFLAWYQQKPGQSPKLLIYWASTRESGVPDRFTGRGSGTDFTLTISSVQAEDLAVYYCKQSFNLFTFGSGTKLEIK"
  IC50 / µg/mL: 0.836
- binder: "h001-3 (antibody, human IgG1, V domains shown, Variable regions only; also called h001_VH.1 + h001_VL.1B) VH: QVQLVQSGAEVKKPGASVKVSCKASGYTFTDYWMHWVRQAPGQGLEWMGYINPSSGFTKYHQNFKDRVTMTRDTSISTAYMELSRLRSDDTAVYYCARQYDYDEDWYFDVWGQGTTVTVSS VL: DIQMSQSPSSLSASVGDRVTITCKSSQSLLNSRTRKNFLAWYQQKPGKAPKLLIYWASTRESGVPDRFSGSGSGTDFTLTISSLQPEDFATYYCKQSFNLFTFGQGTKLEIK"
  IC50 / µg/mL: 0.702
